- ASSAY PROTOCOL: Room temperature aqueous solubility with solubilizing agents (Example 36)
- Type: physicochemical
- EXPERIMENTAL CONTEXT: aqueous with cosolvent or surfactant or cyclodextrin, Solubility
Listed compounds paired with reported Solubility
Hi! Could you send only the number? It should be in mg/mL, unit omitted.

- STRUCTURE: "COC(=O)N[C@@H](Cc1ccccc1)C(=O)N[C@@H](Cc1ccc(NS(=O)(=O)O)cc1)c1nc(-c2cccs2)cs1"
  Solubility [mg/mL]: 42

Solubility lookup needed for CCc1csc([C@H](Cc2ccc(NS(=O)(=O)O)cc2)NC(=O)[C@H](Cc2ccccc2)NC(=O)OC)n1 , thanks.
60
